Target: GAL4 DBD (1-147)-CfEcR(DEF)/VP16AD-βRXREF-LmUSPEF (Choristoneura fumiferana, UniProt O77240)
Test: cell-based
Details: maximum fold induction at any concentration relative to that of GS-E ligand; CHO 27-63 cells
Measured parameter: 27-63 assay Rel Max FI

[[record]]
compound = "CCc1c(C(=O)NN(C(=O)c2ccccc2OC)C(C)(C)C)ccc2c1OCCO2 [RG-100690]"
recorded_value = 0.727

[[record]]
compound = "CCc1c(C(=O)NN(C(=O)c2ccccc2OC)C(C)(C)C)ccc2c1OCOC2"
recorded_value = 0.746

[[record]]
compound = "COc1cc(C(=O)N(NC(=O)c2cccc(OC)c2C)C(C)(C)C)c(=O)[nH]n1"
recorded_value = 0.154

[[record]]
compound = "CCc1c(OC)cccc1C(=O)NN(C(=O)c1cc(Cl)ccc1[N+](=O)[O-])C(C)(C)C"
recorded_value = 0.663


###

Molecular target: GAL4 DBD-CfEcR(DEF)/VP16AD-MmRXRE (Choristoneura fumiferana, UniProt O77240)
Test: 13B3 Assay (CHO stable cell line, luciferase reporter)
Conditions: maximum fold induction at any concentration relative to that of GS-E ligand; CHO 13B3 cells
Entries are grouped by 13B3 assay Rel Max FI into these classes: class 0 = under 0.7, class 1 = from 0.7 up to 0.9, class 2 = 0.9 and over

[[record]]
compound = "COc1cc(C(=O)N(NC(=O)c2cccc(O)c2C)C(C)(C)C)cc(OC)c1C"
label_value = "class 0"

[[record]]
compound = "Cc1cc(C)cc(C(=O)N(NC(=O)c2cccc([N+](=O)[O-])c2C)C(C)(C)C)c1"
label_value = "class 0"

[[record]]
compound = "CCc1c(OC)cccc1C(=O)NN(C(=O)c1cc(Cl)ccc1[N+](=O)[O-])C(C)(C)C"
label_value = "class 1"

[[record]]
compound = "Cc1cc(C)cc(C(=O)N(NC(=O)c2ccc3c(c2)OC(C)O3)C(C)(C)C)c1 (stereo not shown)"
label_value = "class 1"

[[record]]
compound = "COc1cccc(C(=O)NN(C(=O)c2cc(C)cc(C)c2)C(C)(C)C)c1CS(C)(=O)=O"
label_value = "class 0"

[[record]]
compound = "COc1cc(C(=O)N(NC(=O)c2ccc3c(c2C)OCCO3)C(C)(C)C#N)cc(OC)c1C"
label_value = "class 2"

[[record]]
compound = "CCc1c(OC)cccc1C(=O)NN(C(=O)c1cc(C)cc(C=NO)c1)C(C)(C)C"
label_value = "class 2"

[[record]]
compound = "C=Cc1c(OC)cccc1C(=O)NN(C(=O)c1cc(C)cc(C)c1)C(C)(C)C"
label_value = "class 2"

[[record]]
compound = "CCc1c(OC)cccc1C(=O)NN(C(=O)c1cc(C)cc(C)c1)C(C)(C)C=O"
label_value = "class 2"

[[record]]
compound = "CCc1c(OC)cccc1C(=O)NN(C(=O)c1cccc(Br)c1)C(C)(C)C"
label_value = "class 2"

[[record]]
compound = "COc1cccc(C(=O)NN(C(=O)c2cc(C)cc(C)c2)C(C)(C)C)c1CF"
label_value = "class 0"

[[record]]
compound = "CCc1ccc(C(=O)NN(C(=O)c2cc(C)cc(C)c2)C(C)(C)C)c(F)c1"
label_value = "class 1"

[[record]]
compound = "COCc1c(OC)cccc1C(=O)NN(C(=O)c1cc(C)cc(C)c1)C(C)(C)C"
label_value = "class 0"

[[record]]
compound = "Cc1ccc([N+](=O)[O-])c(C(=O)N(NC(=O)c2ccc3c(c2C)CCCO3)C(C)(C)C)c1"
label_value = "class 0"

[[record]]
compound = "CCc1c(OC)cccc1C(=O)NN(C(=O)c1cc(C)cc(COC(C)=O)c1)C(C)(C)C"
label_value = "class 2"

[[record]]
compound = "CCc1ccc(C(=O)NN(C(=O)c2cc(C)cc(Cl)c2)C(C)(C)C)cc1"
label_value = "class 0"

[[record]]
compound = "CCc1ccc(C(=O)NN(C(=O)c2cc(C)c(Cl)c(C)c2)C(C)(C)C)cc1"
label_value = "class 1"

[[record]]
compound = "CCc1c(OC)cccc1C(=O)NN(C(=O)c1cc(C)cc(C)c1)C(C)(C)C(=O)O"
label_value = "class 1"

[[record]]
compound = "CCc1ccc(C(=O)NN(C(=O)c2ccccc2[N+](=O)[O-])C(C)(C)C)cc1"
label_value = "class 0"

[[record]]
compound = "CCc1ccc(C(=O)NN(C(=O)c2cc(C)cc(C)c2)C(C)(C)C)cc1Cl"
label_value = "class 0"

[[record]]
compound = "Cc1c(C(=O)NN(C(=O)c2cc(Cl)nc(Cl)c2)C(C)(C)C)ccc2c1OCCO2"
label_value = "class 1"

[[record]]
compound = "CCc1c(C(=O)NN(C(=O)c2cc(Cl)nc(Cl)c2)C(C)(C)C)ccc2c1OCCO2"
label_value = "class 1"

[[record]]
compound = "CCC(N(NC(=O)c1cccc(C)c1C)C(=O)c1cccc(C)c1)C(C)(C)C (stereo not shown)"
label_value = "class 1"

[[record]]
compound = "Cc1cc(C)cc(C(=O)N(NC(=O)c2ccc3c(c2)CCCC3)C(C)(C)C)c1"
label_value = "class 0"

[[record]]
compound = "Cc1cc(C)cc(C(=O)N(NC(=O)c2ccc3c(c2F)COCO3)C(C)(C)C)c1"
label_value = "class 1"

[[record]]
compound = "COc1ccc(C(=O)N(NC(=O)c2ccc3c(c2C)OCCO3)C(C)(C)C)c(OC)n1"
label_value = "class 0"

[[record]]
compound = "CCc1c(OC)cccc1C(=O)NN(C(=O)c1cc(C)cc(C)c1)C(C)(C)C=NO"
label_value = "class 2"

[[record]]
compound = "COc1cccc(C(=O)NN(C(=O)c2cc(C)cc(C)c2)C(C)(C)C)c1I"
label_value = "class 2"


###

Molecular target: GAL4 DBD (1-147)-CfEcR(DEF)/VP16AD-βRXREF-LmUSPEF (Choristoneura fumiferana, UniProt O77240)
Test: cell-based
Conditions: read-out: 27-63 assay EC50; CHO 27-63 stable cell line, luciferase reporter; average of two wells
Parameter: EC50. Scope: all listed entries.
Measured parameter: EC50

[[record]]
compound = "CCc1c(OC)cccc1C(=O)NN(C(=O)c1ccccc1OC)C(C)(C)C"
recorded_value = "330 nM"

[[record]]
compound = "COc1cccc(C(=O)NN(C(=O)c2cccnc2Cl)C(C)(C)C)c1C"
recorded_value = "6700 nM"

[[record]]
compound = "CCCC(N(NC(=O)c1cccc(OC)c1C)C(=O)c1cc(OC)c(C)c(OC)c1)C(C)(C)C (stereo not shown)"
recorded_value = "36 nM"

[[record]]
compound = "COc1cc(C(=O)N(NC(=O)c2cccc(OC)c2C)C(C)(C)C)ccc1C"
recorded_value = "333 nM"

[[record]]
compound = "COc1cccc(C(=O)NN(C(=O)c2cc(C)cc(Br)c2)C(C)(C)C)c1C"
recorded_value = "266 nM"

[[record]]
compound = "Cc1cc(C)cc(C(=O)N(NC(=O)c2cc3c(cc2Cl)OCO3)C(C)(C)C)c1"
recorded_value = "4020 nM"

[[record]]
compound = "CCc1ccc(C(=O)NN(C(=O)c2cc(C)cc(C)c2)C(c2ccccc2)C(C)(C)C)cc1 (stereo not shown)"
recorded_value = "95 nM"

[[record]]
compound = "CCc1c(OC)cccc1C(=O)NN(C(=O)c1cc(OC)cc(OC)c1)C(C)(C)C"
recorded_value = "678 nM"

[[record]]
compound = "CC(O)c1ccc(C(=O)NN(C(=O)c2cc(F)cc(F)c2)C(C)(C)C)cc1 (stereo not shown)"
recorded_value = "17700 nM"

[[record]]
compound = "COc1cc(C(=O)N(NC(=O)c2cccc(OC)c2C)C(C)(C)C)c(OC)nn1"
recorded_value = "> 33000 nM"

[[record]]
compound = "CCc1c(OC)cccc1C(=O)NN(C(=O)c1ccc(Cl)cc1OC)C(C)(C)C"
recorded_value = "128 nM"

[[record]]
compound = "CCc1c(C(=O)NN(C(=O)c2ccc(F)cc2)C(C)(C)C)ccc2c1OCOC2"
recorded_value = "4000 nM"

[[record]]
compound = "CC(C)(C)N(NC(=O)c1ccc2c(c1)OCO2)C(=O)c1ccc(F)cc1Cl"
recorded_value = "8420 nM"

[[record]]
compound = "COc1cc(C)ccc1C(=O)N(NC(=O)c1cccc(OC)c1C)C(C)(C)C"
recorded_value = "196 nM"

[[record]]
compound = "CCc1c(C(=O)NN(C(=O)c2cccc(OC)c2)C(C)(C)C)ccc2c1OCCO2"
recorded_value = "330 nM"

[[record]]
compound = "CC(C)(C)N(NC(=O)c1c(F)cccc1F)C(=O)c1cc(Cl)cc(Cl)c1"
recorded_value = "2080 nM"

[[record]]
compound = "CCCC(N(NC(=O)c1cccc(OC)c1CC)C(=O)c1cc(C)cc(C)c1)C(C)(C)C (stereo not shown)"
recorded_value = "36 nM"

[[record]]
compound = "CCc1ccc(C(=O)NN(C(=O)c2cccnc2OC)C(c2ccccc2)C(C)(C)C)cc1 (stereo not shown)"
recorded_value = "1290 nM"

[[record]]
compound = "CCc1c(C(=O)NN(C(=O)c2ccccc2OC)C(C)(C)C)ccc2c1OCCO2 [RG-115244]"
recorded_value = "169 nM"

[[record]]
compound = "CCc1c(C(=O)NN(C(=O)c2cc(C)cc(C)c2)C(C)(C)C)ccc2c1OC(C)O2 (stereo not shown)"
recorded_value = "347 nM"

[[record]]
compound = "Cc1cc(C)cc(C(=O)N(NC(=O)c2ccc3c(c2Br)OCCO3)C(C)(C)C)c1"
recorded_value = "240 nM"

[[record]]
compound = "CCc1c(C(=O)NN(C(=O)c2ccc(F)c(F)c2F)C(C)(C)C)ccc2c1OCCO2"
recorded_value = "375 nM"

[[record]]
compound = "COc1ccc(OC)c(C(=O)N(NC(=O)c2cccc(C)c2C)C(C)(C)C)c1"
recorded_value = "5300 nM"

[[record]]
compound = "Cc1cc(C)cc(C(=O)N(NC(=O)c2ccc3c(c2)CCCC3)C(C)(C)C)c1"
recorded_value = "351 nM"

[[record]]
compound = "CCc1c(OC)cccc1C(=O)NN(C(=O)c1cc(F)c(Cl)cc1Cl)C(C)(C)C"
recorded_value = "1040 nM"

[[record]]
compound = "COc1ccc(C(=O)NN(C(=O)c2ccc(F)cc2Cl)C(C)(C)C)cc1"
recorded_value = "6620 nM"

[[record]]
compound = "COc1ccccc1C(=O)N(NC(=O)c1ccc2c(c1)OCCO2)C(C)(C)C"
recorded_value = "11800 nM"

[[record]]
compound = "CCc1c(OC)cccc1C(=O)NN(C(=O)c1cc(OC)c(C)c(OC)c1)C(CC)C(C)(C)C (stereo not shown)"
recorded_value = "96 nM"

[[record]]
compound = "CCc1ccc(C(=O)NN(C(=O)c2cc(C)cc(C)c2)C(C)C(C)(C)C)cc1 (stereo not shown)"
recorded_value = "314 nM"

[[record]]
compound = "CCc1c(OC)cccc1C(=O)NN(C(=O)c1cc(C)cc(C)c1)C(C)(C)C=NNC(N)=O"
recorded_value = "19800 nM"

[[record]]
compound = "Cc1c(C(=O)NN(C(=O)c2ccc(F)cc2)C(C)(C)C)ccc2c1OCCO2"
recorded_value = "370 nM"

[[record]]
compound = "Cc1c(C(=O)NN(C(=O)c2ccc(F)cc2)C(C)(C)C)ccc2c1CCCO2"
recorded_value = "394 nM"

[[record]]
compound = "CCCC(N(NC(=O)c1cccc(OC)c1C)C(=O)c1cc(C)cc(C)c1)C(C)(C)C (stereo not shown)"
recorded_value = "11 nM"

[[record]]
compound = "CCc1c(OC)cccc1C(=O)NN(C(=O)c1cc(C)cc(C)c1)C(CC)C(C)(C)C (stereo not shown)"
recorded_value = "35 nM"

